B1: Syntaxin-binding protein 4, residues 493 to 538; numbered along this chain, Q6ZWJ1 (parent)
chain: LDMDCLPYGWEEAYTADGIKYFINHVTQTTSWIHPVMSVLNLSRSE

variants of: B1; assay: abundance fitness (aPCA) (normalised: wild type 0, dead -1); higher = more abundant; growth selection in yeast, the domain comes from the species named; conditions: Homo sapiens
# cutoff -0.8 applies to abundance fitness; >= gives True, < gives False

The following variants have reported results that may help.
variant_code=W10V qualitative_label=True
variant_code=F22R qualitative_label=False
variant_code=Q28K qualitative_label=True
variant_code=G18M qualitative_label=False
variant_code=G9Y qualitative_label=False
variant_code=L40V qualitative_label=True
variant_code=L42M qualitative_label=True
variant_code=S31D qualitative_label=False

Given the entry V39E , answer whether its abundance fitness meets or surpasses -0.8.
True

Given the entry S45M , answer whether its abundance fitness meets or surpasses -0.8.
False

Given the entry T27P , answer whether its abundance fitness meets or surpasses -0.8.
True

Given the entry K20T , answer whether its abundance fitness meets or surpasses -0.8.
True

Given the entry A13Q , answer whether its abundance fitness meets or surpasses -0.8.
True

Given the entry C5M , answer whether its abundance fitness meets or surpasses -0.8.
True
